- Test system: Staphylococcus haemolyticus 415
- test-summary: MIC, standard broth micro-dilution assay
- Format: cell-based
readout-name: MIC (µg/mL)
Provide the reading as a plain figure in µg/mL.

*Q* Give the reported value of MIC for this record: CCCCCOc1ccc(-c2ccc(CNC3(C)CC(OC4C(Oc5c6cc7cc5Oc5ccc(cc5Cl)C(OC5CC(C)(N)C(O)C(C)O5)C5NC(=O)C(NC(=O)C7NC(=O)C(CC(N)=O)NC(=O)C(NC(=O)C(CC(C)C)NC)C(O)c7ccc(c(Cl)c7)O6)c6ccc(O)c(c6)-c6c(O)cc(O)cc6C(C(=O)O)NC5=O)OC(CO)C(O)C4O)OC(C)C3O)cc2)cc1 (stereo not shown) [Compound 40, 4-[4-pentoxyphenyl]benzyl]
*A* 2

*Q* Give the reported value of MIC for this record: CNC(CC(C)C)C(=O)NC1C(=O)NC(CC(N)=O)C(=O)NC2C(=O)NC3C(=O)NC(C(=O)NC(C(=O)O)c4cc(O)cc(O)c4-c4cc3ccc4O)C(OC3CC(C)(N)C(O)C(C)O3)c3ccc(c(Cl)c3)Oc3cc2cc(c3OC2OC(CO)C(O)C(O)C2OC2CC(C)(NCC3CC=CCC3)C(O)C(C)O2)Oc2ccc(cc2Cl)C1O (stereo not shown) [Compound 47, 3,4 cyclohexenylmethyl]
*A* 16

*Q* Give the reported value of MIC for this record: CNC(CC(C)C)C(=O)NC1C(=O)NC(CC(N)=O)C(=O)NC2C(=O)NC3C(=O)NC(C(=O)NC(C(=O)O)c4cc(O)cc(O)c4-c4cc3ccc4O)C(OC3CC(C)(N)C(O)C(C)O3)c3ccc(c(Cl)c3)Oc3cc2cc(c3OC2OC(CO)C(O)C(O)C2OC2CC(C)(NCc3ccc(Cc4ccccc4)cc3)C(O)C(C)O2)Oc2ccc(cc2Cl)C1O (stereo not shown) [Compound 50, 4-benzylbenzyl]
*A* 1

*Q* Give the reported value of MIC for this record: CNC(CC(C)C)C(=O)NC1C(=O)NC(CC(N)=O)C(=O)NC2C(=O)NC3C(=O)NC(C(=O)NC(C(=O)O)c4cc(O)cc(O)c4-c4cc3ccc4O)C(OC3CC(C)(N)C(O)C(C)O3)c3ccc(c(Cl)c3)Oc3cc2cc(c3OC2OC(CO)C(O)C(O)C2OC2CC(C)(NCc3cccc4c([N+](=O)[O-])cccc34)C(O)C(C)O2)Oc2ccc(cc2Cl)C1O (stereo not shown) [Compound 25, 5-nitro-1-naphthylmethyl]
*A* 32

*Q* Give the reported value of MIC for this record: CNC(CC(C)C)C(=O)NC1C(=O)NC(CC(N)=O)C(=O)NC2C(=O)NC3C(=O)NC(C(=O)NC(C(=O)O)c4cc(O)cc(O)c4-c4cc3ccc4O)C(OC3CC(C)(N)C(O)C(C)O3)c3ccc(c(Cl)c3)Oc3cc2cc(c3OC2OC(CO)C(O)C(O)C2OC2CC(C)(NCc3cc(-c4ccccc4)nc4ccc(OC)cc34)C(O)C(C)O2)Oc2ccc(cc2Cl)C1O (stereo not shown) [Compound 45, 4-[2-phenyl-6-methoxy]quinoylmethyl]
*A* 8

*Q* Give the reported value of MIC for this record: CNC(CC(C)C)C(=O)NC1C(=O)NC(CC(N)=O)C(=O)NC2C(=O)NC3C(=O)NC(C(=O)NC(C(=O)O)c4cc(O)cc(O)c4-c4cc3ccc4O)C(OC3CC(C)(N)C(O)C(C)O3)c3ccc(c(Cl)c3)Oc3cc2cc(c3OC2OC(CO)C(O)C(O)C2OC2CC(C)(NCc3c(O)ccc4ccccc34)C(O)C(C)O2)Oc2ccc(cc2Cl)C1O (stereo not shown) [Compound 44]
*A* 4

*Q* Give the reported value of MIC for this record: CNC(CC(C)C)C(=O)NC1C(=O)NC(CC(N)=O)C(=O)NC2C(=O)NC3C(=O)NC(C(=O)NC(C(=O)O)c4cc(O)cc(O)c4-c4cc3ccc4O)C(OC3CC(C)(N)C(O)C(C)O3)c3ccc(c(Cl)c3)Oc3cc2cc(c3OC2OC(CO)C(O)C(O)C2OC2CC(C)(NCc3ccc(C(O)c4ccccc4)cc3)C(O)C(C)O2)Oc2ccc(cc2Cl)C1O (stereo not drawn) [Compound 109, 4-[alpha-hydroxybenzyl]benzyl]
*A* 4

---

- System: Pedicoccus acidilacti
- test-summary: MIC, agar dilution on brain-heart infusion agar
- Format: cell-based
- settings: Pedioccccus acidilacti (mean of 10)
readout-name: MIC (µg/mL)
Provide the reading as a plain figure in µg/mL.

*Q* Give the reported value of MIC for this record: CNC(CC(C)C)C(=O)NC1C(=O)NC(CC(N)=O)C(=O)NC2C(=O)NC3C(=O)NC(C(=O)NC(C(=O)O)c4cc(O)cc(O)c4-c4cc3ccc4O)C(OC3CC(C)(N)C(O)C(C)O3)c3ccc(c(Cl)c3)Oc3cc2cc(c3OC2OC(CO)C(O)C(O)C2OC2CC(C)(NCc3ccc(Oc4ccccc4)cc3)C(O)C(C)O2)Oc2ccc(cc2Cl)C1O (centres unmarked) [Compound 4, p-phenoxybenzyl.cndot.A82846B]
*A* 7.5

*Q* Give the reported value of MIC for this record: CNC(CC(C)C)C(=O)NC1C(=O)NC(CC(N)=O)C(=O)NC2C(=O)NC3C(=O)NC(C(=O)NC(C(=O)O)c4cc(O)cc(O)c4-c4cc3ccc4O)C(OC3CC(C)(N)C(O)C(C)O3)c3ccc(c(Cl)c3)Oc3cc2cc(c3OC2OC(CO)C(O)C(O)C2OC2CC(C)(NCc3ccc(Cc4ccccc4)cc3)C(O)C(C)O2)Oc2ccc(cc2Cl)C1O (centres unmarked)
*A* 51

---

- Tested on: Staphylococcus aureus 489
- test-summary: MIC, standard broth micro-dilution assay
- Format: cell-based
Can you tell me MIC for the items I'm about to list?

*Q* Give the reported value of MIC for this record: CNC(CC(C)C)C(=O)NC1C(=O)NC(CC(N)=O)C(=O)NC2C(=O)NC3C(=O)NC(C(=O)NC(C(=O)O)c4cc(O)cc(O)c4-c4cc3ccc4O)C(OC3CC(C)(N)C(O)C(C)O3)c3ccc(c(Cl)c3)Oc3cc2cc(c3OC2OC(CO)C(O)C(O)C2OC2CC(C)(NCC3CC=CCC3)C(O)C(C)O2)Oc2ccc(cc2Cl)C1O (stereo not drawn)
*A* ≤ 0.06 µg/mL

*Q* Give the reported value of MIC for this record: CNC(CC(C)C)C(=O)NC1C(=O)NC(CC(N)=O)C(=O)NC2C(=O)NC3C(=O)NC(C(=O)NC(C(=O)O)c4cc(O)cc(O)c4-c4cc3ccc4O)C(OC3CC(C)(N)C(O)C(C)O3)c3ccc(c(Cl)c3)Oc3cc2cc(c3OC2OC(CO)C(O)C(O)C2OC2CC(C)(NCc3ccc(SC)cc3)C(O)C(C)O2)Oc2ccc(cc2Cl)C1O (stereo not drawn)
*A* ≤ 0.06 µg/mL

*Q* Give the reported value of MIC for this record: CNC(CC(C)C)C(=O)NC1C(=O)NC(CC(N)=O)C(=O)NC2C(=O)NC3C(=O)NC(C(=O)NC(C(=O)O)c4cc(O)cc(O)c4-c4cc3ccc4O)C(OC3CC(C)(N)C(O)C(C)O3)c3ccc(c(Cl)c3)Oc3cc2cc(c3OC2OC(CO)C(O)C(O)C2OC2CC(C)(NCc3c(O)ccc4ccccc34)C(O)C(C)O2)Oc2ccc(cc2Cl)C1O (stereo not drawn)
*A* ≤ 0.06 µg/mL

---

Can you tell me MIC for the items I'm about to list?
- System: Streptococcus pneumoniae P1
- test-summary: MIC, standard broth micro-dilution assay
- Format: cell-based

*Q* Give the reported value of MIC for this record: CNC(CC(C)C)C(=O)NC1C(=O)NC(CC(N)=O)C(=O)NC2C(=O)NC3C(=O)NC(C(=O)NC(C(=O)O)c4cc(O)cc(O)c4-c4cc3ccc4O)C(OC3CC(C)(N)C(O)C(C)O3)c3ccc(c(Cl)c3)Oc3cc2cc(c3OC2OC(CO)C(O)C(O)C2OC2CC(C)(NCc3ccc4c(c3)OCO4)C(O)C(C)O2)Oc2ccc(cc2Cl)C1O (stereo not shown)
*A* ≤ 0.06 µg/mL

*Q* Give the reported value of MIC for this record: CNC(CC(C)C)C(=O)NC1C(=O)NC(CC(N)=O)C(=O)NC2C(=O)NC3C(=O)NC(C(=O)NC(C(=O)O)c4cc(O)cc(O)c4-c4cc3ccc4O)C(OC3CC(C)(N)C(O)C(C)O3)c3ccc(c(Cl)c3)Oc3cc2cc(c3OC2OC(CO)C(O)C(O)C2OC2CC(C)(NCc3cc(-c4ccccc4)nc4ccc(OC)cc34)C(O)C(C)O2)Oc2ccc(cc2Cl)C1O (stereo not shown) [Compound 45, 4-[2-phenyl-6-methoxy]quinoylmethyl]
*A* ≤ 0.06 µg/mL

*Q* Give the reported value of MIC for this record: CNC(CC(C)C)C(=O)NC1C(=O)NC(CC(N)=O)C(=O)NC2C(=O)NC3C(=O)NC(C(=O)NC(C(=O)O)c4cc(O)cc(O)c4-c4cc3ccc4O)C(OC3CC(C)(N)C(O)C(C)O3)c3ccc(c(Cl)c3)Oc3cc2cc(c3OC2OC(CO)C(O)C(O)C2OC2CC(C)(NCc3ccc(C(c4ccccc4)c4ccccc4)cc3)C(O)C(C)O2)Oc2ccc(cc2Cl)C1O (stereo not shown)
*A* ≤ 0.06 µg/mL

*Q* Give the reported value of MIC for this record: CNC(CC(C)C)C(=O)NC1C(=O)NC(CC(N)=O)C(=O)NC2C(=O)NC3C(=O)NC(C(=O)NC(C(=O)O)c4cc(O)cc(O)c4-c4cc3ccc4O)C(OC3CC(C)(N)C(O)C(C)O3)c3ccc(c(Cl)c3)Oc3cc2cc(c3OC2OC(CO)C(O)C(O)C2OC2CC(C)(NCc3cccc(Oc4ccccc4)c3)C(O)C(C)O2)Oc2ccc(cc2Cl)C1O (stereo not shown)
*A* ≤ 0.06 µg/mL

*Q* Give the reported value of MIC for this record: CNC(CC(C)C)C(=O)NC1C(=O)NC(CC(N)=O)C(=O)NC2C(=O)NC3C(=O)NC(C(=O)NC(C(=O)O)c4cc(O)cc(O)c4-c4cc3ccc4O)C(OC3CC(C)(N)C(O)C(C)O3)c3ccc(c(Cl)c3)Oc3cc2cc(c3OC2OC(CO)C(O)C(O)C2OC2CC(C)(NCc3ccc(SC)cc3)C(O)C(C)O2)Oc2ccc(cc2Cl)C1O (stereo not shown)
*A* ≤ 0.06 µg/mL

*Q* Give the reported value of MIC for this record: CNC(CC(C)C)C(=O)NC1C(=O)NC(CC(N)=O)C(=O)NC2C(=O)NC3C(=O)NC(C(=O)NC(C(=O)O)c4cc(O)cc(O)c4-c4cc3ccc4O)C(OC3CC(C)(N)C(O)C(C)O3)c3ccc(c(Cl)c3)Oc3cc2cc(c3OC2OC(CO)C(O)C(O)C2OC2CC(C)(NCC3CC=CCC3)C(O)C(C)O2)Oc2ccc(cc2Cl)C1O (stereo not shown)
*A* ≤ 0.06 µg/mL

*Q* Give the reported value of MIC for this record: CCCCCOc1ccc(-c2ccc(CNC3(C)CC(OC4C(Oc5c6cc7cc5Oc5ccc(cc5Cl)C(OC5CC(C)(N)C(O)C(C)O5)C5NC(=O)C(NC(=O)C7NC(=O)C(CC(N)=O)NC(=O)C(NC(=O)C(CC(C)C)NC)C(O)c7ccc(c(Cl)c7)O6)c6ccc(O)c(c6)-c6c(O)cc(O)cc6C(C(=O)O)NC5=O)OC(CO)C(O)C4O)OC(C)C3O)cc2)cc1 (stereo not shown) [Compound 40, 4-[4-pentoxyphenyl]benzyl]
*A* ≤ 0.06 µg/mL
